B1: KCNA1 (parent)
chain: LKASMRELGLLIFFLFIGVILFSS

Variants of: B1
measurementDescription: protein stability index of a GFP-peptide fusion (GPS, HEK-293T) (PSI 1-6); higher = more stable;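 further: lentivirally expressed fusions sorted by FACS into six bins by GFP to DsRed ratio, PSI derived from sequencing read proportions per bin multiplied by bin number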
settings: c terminus: a fixed tail appended
measuredMetric: protein stability index
Number only, please.

Example entries and their recorded answers appear below.
- changes: "L15Y"
  assayValue: 2.55
- changes: "M5T"
  assayValue: 2.21

Input: Tell me the measured protein stability index of L10T , please.
Output: 3.06

Input: Fill in the blank: the reported protein stability index of F13P is ____.
Output: 3.61

Input: Entry L8A : reported protein stability index = ?
Output: 2.58
